# key: entry, value: IC50
# measured on: OX2 (Homo sapiens)
# Construct: expressed in transfected cells; host or cells: CHO (CHO-OX2, kept under selection antibiotic)
# Sequence (O43614 whole entry): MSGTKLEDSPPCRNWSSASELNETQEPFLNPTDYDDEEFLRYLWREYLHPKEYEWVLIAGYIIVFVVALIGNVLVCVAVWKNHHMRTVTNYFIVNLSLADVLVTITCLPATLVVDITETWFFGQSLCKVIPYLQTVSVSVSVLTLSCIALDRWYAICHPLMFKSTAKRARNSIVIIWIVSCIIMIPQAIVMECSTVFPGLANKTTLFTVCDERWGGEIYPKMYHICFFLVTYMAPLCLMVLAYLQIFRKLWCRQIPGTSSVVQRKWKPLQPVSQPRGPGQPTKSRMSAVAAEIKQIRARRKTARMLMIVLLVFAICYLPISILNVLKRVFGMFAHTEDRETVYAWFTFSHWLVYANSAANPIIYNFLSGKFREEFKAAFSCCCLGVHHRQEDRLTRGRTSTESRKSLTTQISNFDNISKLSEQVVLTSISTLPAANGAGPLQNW
# assay info: Orexin receptor cell-based functional assay, [Ca2+]i by FLIPR, CHO-OX2 cells
# condition label: [Ca2+]i by FLIPR, antagonist dose-range 0.1 nM-10 μM, EC90 of OXA, read-out: OX2
measurement name: IC50 (nM)

molecule: Cc1cc(-n2nccn2)c(C(=O)N2CCC[C@@H](C)[C@H]2CNc2ncc(C(F)(F)F)cn2)cc1F [Example A361]
measured on: OX2 (Homo sapiens)
result units: nM
sign qualifier: >
recorded measurement: 5000
--
molecule: Cc1c(F)ccc(-n2nccn2)c1C(=O)N1CCC[C@@H](C)[C@H]1CNc1ncc(C(F)(F)F)cn1 [Example A385]
measured on: OX2 (Homo sapiens)
result units: nM
sign qualifier: >
recorded measurement: 5000
--
molecule: Cc1ccc(-c2ncccn2)c(C(=O)N2CCC[C@@H](C)[C@H]2CNc2ccc(C(F)(F)F)cn2)c1F [Example A320]
measured on: OX2 (Homo sapiens)
result units: nM
sign qualifier: =
recorded measurement: 1400
--
molecule: Cc1ccc(C(=O)N2CCC[C@@H](C)[C@H]2CNc2ncc(C(F)(F)F)cn2)c(-c2ncccn2)c1 [Example A340]
measured on: OX2 (Homo sapiens)
result units: nM
sign qualifier: >
recorded measurement: 5000
--
molecule: Cc1c(F)ccc(C(=O)N2CCC[C@@H](C)[C@H]2CNc2ccc(C(F)(F)F)cn2)c1-n1nccn1 [Example A344]
measured on: OX2 (Homo sapiens)
result units: nM
sign qualifier: =
recorded measurement: 2800
--
molecule: C[C@@H]1CCCN(C(=O)c2c(-c3ncccn3)ccc(F)c2F)[C@@H]1CNc1ccc(C(F)(F)F)cn1 [Example A388]
measured on: OX2 (Homo sapiens)
result units: nM
sign qualifier: >
recorded measurement: 5000
--
molecule: Cc1ccc(F)c(C(=O)N2CCC[C@@H](C)[C@H]2CNc2ccc(C(F)(F)F)cn2)c1-n1nccn1 [Example A352]
measured on: OX2 (Homo sapiens)
result units: nM
sign qualifier: =
recorded measurement: 1500
--
molecule: Cc1c(F)ccc(C(=O)N2CCC[C@@H](C)[C@H]2CNc2ncc(C(F)(F)F)cn2)c1-c1ncccn1 [Example A347]
measured on: OX2 (Homo sapiens)
result units: nM
sign qualifier: >
recorded measurement: 5000
--
molecule: Cc1ccc(-c2ncccn2)c(C(=O)N2CCC[C@@H](C)[C@H]2CNc2ncc(C(F)(F)F)cn2)c1F [Example A321]
measured on: OX2 (Homo sapiens)
result units: nM
sign qualifier: >
recorded measurement: 5000
--
molecule: C[C@@H]1CCCN(C(=O)c2ccc(F)cc2-c2ncccn2)[C@@H]1CNc1ncc(C(F)(F)F)cn1 [Example A235]
measured on: OX2 (Homo sapiens)
result units: nM
sign qualifier: =
recorded measurement: 2400
--
molecule: Cc1c(F)ccc(C(=O)N2CCC[C@@H](C)[C@H]2CNc2ncc(C(F)(F)F)cn2)c1-n1nccn1 [Example A345]
measured on: OX2 (Homo sapiens)
result units: nM
sign qualifier: >
recorded measurement: 5000
--
molecule: Cc1cc(F)cc(C(=O)N2CCC[C@@H](C)[C@H]2CNc2ccc(C(F)(F)F)cn2)c1-c1ncccn1 [Example A342]
measured on: OX2 (Homo sapiens)
result units: nM
sign qualifier: =
recorded measurement: 380
--
molecule: C[C@@H]1CCCN(C(=O)c2c(F)ccc(F)c2-n2nccn2)[C@@H]1CNc1ccc(C(F)(F)F)cn1 [Example A332]
measured on: OX2 (Homo sapiens)
result units: nM
sign qualifier: >
recorded measurement: 5000
--
molecule: C[C@@H]1CCCN(C(=O)c2ccc(F)c(F)c2-n2nccn2)[C@@H]1CNc1ccc(C(F)(F)F)cn1 [Example A324]
measured on: OX2 (Homo sapiens)
result units: nM
sign qualifier: =
recorded measurement: 490
